MEASUREMENT TYPE: melting point

Query: Dear colleague, I am looking for the recorded melting point of the following compound: O=C(CCl)Nc1cc(F)c(F)cc1[N+](=O)[O-]
Result: 130 to 132 °C

Query: Another compound to check: O=C(CCl)Nc1cc(F)c(F)cc1NC(=O)CCl
Result: 142 to 143 °C

Query: Similarly, O=C(CCl)Nc1ccc(NC(=O)CCl)cc1 ?
Result: 211 to 213 °C

Query: Input O=C(CCl)Nc1c(F)cc(F)cc1[N+](=O)[O-]
Result: 122 to 123 °C

Query: Field entry: O=C(CCl)Nc1ccc(F)cc1F
Result: 80 to 82 °C

Query: And O=C(CCl)Nc1cc(F)cc(F)c1NC(=O)CCl ?
Result: 136 to 138 °C
